Target: T1, rhNav1.7α + β1-β2-β3 (rhesus monkey)
T1 construct: also called rhNav1.7-beta1-beta2-beta3; rhNav1.7-β1-β2-β3
Experiment: binding FACS, CHO FlpIn
reported_endpoint: EC50 (nM)

Worked examples follow.
The reported value for F010301873 (VHH, also called F0103464B09(L11V, R39Q, S68T, T79Y, R81Q, S82aN, N82bS, K83R, G88A, V89L)) VHH: EVQLVESGGGVVQPGGSLRLSCATTSRAFIRDVFTGWYRQVPGKERELVARIYNGGNTNYADFAKGRFTISRDNAKKMVYLQMNSLRPEDTALYYCLFSGTINTGREYRSGDYWGQGTLVTVSS in terms of EC50 is 110

EC50 for F010301933 (VHH, also called F0103464B09(L11V, S68T, K83R, V89L)) VHH: EVQLVESGGGVVQPGGSLRLSCATTSRAFIRDVFTGWYRRVPGKERELVARIYNGGNTNYADFAKGRFTISRDNAKKMVTLRMSNLRPEDTGLYYCLFSGTINTGREYRSGDYWGQGTLVTVSS is 21

Sure, the documented EC50 for F010302342 (VHH) VHH: EVQLVESGGGVVQPGGSLRLSCAASSRQFIRDVFTGWYRQAPGKQRELVARIYNEGNTQYADSAKGRFTISRDNAKKTVYLQMNSLRPEDTALYYCLFSGTISTGREYRSGDYWGQGTLVTVSS is 16

EC50 recorded for this binder, F010302362 (VHH) VHH: EVQLVESGGGVVQPGGSLRLSCAASHRAFIRDVFTGWYRQAPGKQRELVARIYESGNTQYADSVKGRFTISRDNAKKTVYLQMNSLRPEDTALYYCLFSGTISTGREYRSGDYWGQGTLVTVSS , is 14

Reported EC50 of F010301893 (VHH, also called F0103464B09(L11V, E44Q, S68T, T79Y, R81Q, S82aN, N82bS, K83R, G88A, V89L)) VHH: EVQLVESGGGVVQPGGSLRLSCATTSRAFIRDVFTGWYRRVPGKQRELVARIYNGGNTNYADFAKGRFTISRDNAKKMVYLQMNSLRPEDTALYYCLFSGTINTGREYRSGDYWGQGTLVTVSS : 21

Please fill in: EC50 reported for F010301869 (VHH, also called F0103464B09(L11V, S68T, M77T, T79Y, R81Q, S82aN, N82bS, K83R, G88A, V89L)) VHH: EVQLVESGGGVVQPGGSLRLSCATTSRAFIRDVFTGWYRRVPGKERELVARIYNGGNTNYADFAKGRFTISRDNAKKTVYLQMNSLRPEDTALYYCLFSGTINTGREYRSGDYWGQGTLVTVSS = 96

(1) F010302352 (VHH) VHH: EVQLVESGGGVVQPGGSLRLSCAASHRQFIRDVFTGWYRRAPGKQRELVARIYNEGNTQYADSVKGRFTISRDNAKKTVYLQMNSLRPEDTALYYCLFSGTISTGREYRSGDYWGQGTLVTVSS
(2) F010301935 (VHH, also called F0103464B09(L11V, T79Y, K83R, V89L)) VHH: EVQLVESGGGVVQPGGSLRLSCATTSRAFIRDVFTGWYRRVPGKERELVARIYNGGNTNYADFAKGRFSISRDNAKKMVYLRMSNLRPEDTGLYYCLFSGTINTGREYRSGDYWGQGTLVTVSS
Sorting ascending by EC50, which comes first: 1 or 2 ? Give the chosen item's label as your response.
1
(1: 11 nM, 2: 27 nM)
